So I've got a bunch of molecules here, and I need their TGI values.
System: HT29 colon
Experiment: NCI tumour cell line growth inhibition, 48 h
Where a SMILES comes first, the peptide text is derived from it. Peptide text beside a SMILES is read from it. The star is where a group is joined. * marks the point of attachment. Palmitoyl = CCCCCCCCCCCCCCCC(=O)*; Boc = CC(C)(C)OC(=O)*

Prompt line: TGI lookup needed for COc1ccc(NC(=O)C2=C(SC)C(=O)N=C2N)cc1 , thanks.
Response line: > 100 µM

Prompt line: TGI lookup needed for C=CCOn1c(C=C)nc2c(C)cccc21 , thanks.
Response line: 11.6 µM

Prompt line: TGI lookup needed for O=C(NO)C(O)C(O)C(O)C(O)CO (stereo unspecified) , thanks.
Response line: > 100 µM

Prompt line: TGI lookup needed for O=C(Cc1nc2ccc([N+](=O)[O-])cc2[nH]c1=O)C(=O)Nc1cc(Cl)c(Cl)cc1Cl , thanks.
Response line: > 100 µM

Prompt line: TGI lookup needed for CCSc1nc(N)c2cnn(C)c2n1 , thanks.
Response line: > 100 µM

Prompt line: TGI lookup needed for CCCCCCCCC(=O)NCCCNCCCNC(=O)CCCCCCCC , thanks.
Response line: 7.5 µM

Prompt line: TGI lookup needed for O=C(CCN1CCCCC1CO)Nc1ccc2c(c1)C(=O)c1ccc(NC(=O)CCN3CCCCC3CO)cc1C2=O (stereo unspecified) , thanks.
Response line: 31.6 µM

Prompt line: TGI lookup needed for CCOc1ccc(NC(=S)/N=C/C(C(=O)Nc2ccccc2C)=C(\C)O)cc1 , thanks.
Response line: > 100 µM

Prompt line: TGI lookup needed for Cc1cccc(N2CCN(S(=O)(=O)c3ccc(Cl)cc3)C2=N)c1C , thanks.
Response line: > 100 µM

Prompt line: TGI lookup needed for CCCCC(=C=C1CCCCC1O)C1CCCN1C(=O)OC(C)(C)C (stereo unspecified) , thanks.
Response line: 27.3 µM

Prompt line: TGI lookup needed for CC1SC2(CCCCC2)N(NC(=O)c2[nH]c3ccc(F)cc3c2-c2ccccc2)C1=O (stereo unspecified) , thanks.
Response line: > 100 µM

Prompt line: TGI lookup needed for O=C1CC2Sc3ccccc3N=C2N1c1ccc(Cl)cc1Cl (stereo unspecified) , thanks.
Response line: > 100 µM

Prompt line: TGI lookup needed for CCC1(O)CN(CCOC)[C@H]2C[C@@H]1C(=O)c1[nH]c3ccccc3c12 (stereo partly specified) , thanks.
Response line: > 100 µM

Prompt line: TGI lookup needed for C#Cc1cccc(Nc2ncnc3ccc(-c4cncc(NS(C)(=O)=O)c4)cc23)c1 , thanks.
Response line: 6.28 µM

Prompt line: TGI lookup needed for C=CC1(CCC(Br)C(C)(C)Cl)CO1 (stereo unspecified) , thanks.
Response line: > 10 µM

Prompt line: TGI lookup needed for COC(=O)CCc1ccc2c(c1)CC1(C2)Cc2ccc(CCC(=O)OC)cc2C1 , thanks.
Response line: > 100 µM

Prompt line: TGI lookup needed for CCOP(=O)(OCC)C(F)(F)CC1CCCCC1 , thanks.
Response line: > 10 µM

Prompt line: TGI lookup needed for CC(=O)Nc1ccc(-n2cnc3cc(-c4ccc(OCCN5CCCCC5)cc4)ccc32)cc1 , thanks.
Response line: 3.92 µM

Prompt line: TGI lookup needed for CC(C)CC1c2[nH]c3ccccc3c2C[C@H]2C(=O)NC(COC(C)(C)C)C(=O)N12 (stereo partly specified) , thanks.
Response line: 38.3 µM

Prompt line: TGI lookup needed for CC(C)(C)NCCC(O)c1cc(C(F)(F)F)nc2c(C(F)(F)F)cccc12 (stereo unspecified) , thanks.
Response line: 20.1 µM

Prompt line: TGI lookup needed for C=C1C(=O)C[C@@]23CCC[C@@]12CC(O)C3 (stereo partly specified) , thanks.
Response line: 33.2 µM

Prompt line: TGI lookup needed for O=C(O)CNC(=O)c1cccc2c(=O)c3ccccc3[nH]c12 , thanks.
Response line: > 100 µM

Prompt line: TGI lookup needed for Cc1cnc2[nH]c(-c3ccccc3)cc(=O)c2c1 , thanks.
Response line: 0.0732 µM

Prompt line: TGI lookup needed for CCCCCCCCCCCCCCCC(=O)NC(CCCCN)C(=O)NCC(=O)NC(Cc1ccccc1)C(=O)N1CCCC1C(=O)NC(CO)C(=O)NC(Cc1ccc(O)cc1)C(=O)NC(CCCCN)C(=O)NC(CC(C)C)C(=O)NC(CCCN=C(N)N)C(=O)N1CCCC1C(=O)NCC(N)=O (stereo unspecified) (Palmitoyl-KGFPSYKLRPG-NH2; configuration not given here) , thanks.
Response line: 30.7 µM

Prompt line: TGI lookup needed for CC(=O)Nc1ncc2c(n1)-c1ccccc1OC2 , thanks.
Response line: > 100 µM

Prompt line: TGI lookup needed for CN1C(=O)C23CC4=CC=CC(O)C4N2C(=O)C1(CO)SS3 (stereo unspecified) , thanks.
Response line: 11.4 µM

Prompt line: TGI lookup needed for CCCCCCN1C(=O)CN=C1Nc1ccc2cc3ccc(NC4=NCC(=O)N4CCCCCC)cc3nc2c1 , thanks.
Response line: 4.2 µM

Prompt line: TGI lookup needed for COc1ccc(S(=O)(=O)NCCNc2nccc(-c3c(-c4ccccc4)nc4sccn34)n2)cc1 , thanks.
Response line: > 100 µM

Prompt line: TGI lookup needed for COc1cc2c(cc1OC)C1Cc3ccccc3CN1CCC2 (stereo unspecified) , thanks.
Response line: > 100 µM

Prompt line: TGI lookup needed for O=C(CN=Cc1cccs1)CSC(c1ccccc1)c1ccccc1 , thanks.
Response line: 99.2 µM

Prompt line: TGI lookup needed for CSCCC(NC(=O)C(CC(C)C)NC(=O)CNC(=O)OC(C)(C)C)C(=O)N(C)C (stereo not drawn) (Boc-Gly-Leu-Met-NMe2; configuration not given here) , thanks.
Response line: > 100 µM

Prompt line: TGI lookup needed for CCOC(=O)Cc1csc(NC(=O)C(OC(=O)c2ccc(N)cc2)c2ccccc2)n1 (stereo unspecified) , thanks.
Response line: > 100 µM

Prompt line: TGI lookup needed for COC1C(CO)OC(n2c3ccccc3c3c4c(c5c6ccccc6[nH]c5c32)C(=O)NC4=O)C(O)C1OC(=O)C(N)CCCCN (stereo unspecified) , thanks.
Response line: > 50 µM

Prompt line: TGI lookup needed for CCOc1cc(C=O)ccc1O , thanks.
Response line: > 100 µM

Prompt line: TGI lookup needed for COc1cc2c(cc1OC)[C@H]1C(=O)c3cc4c(cc3[C@H]1N(C)C2=O)OCO4 , thanks.
Response line: > 100 µM

Prompt line: TGI lookup needed for CCOC(=O)NNC(=O)NC12CC3CC(CC(C3)C1)C2 , thanks.
Response line: > 100 µM
